Test system: 855422-203-R-J1-PDC complex spheroid viability
experimental protocol: Anticancer human tumor 855422-203-R-J1-PDC patient-derived bladder carcinoma cell line growth inhibition
measurement conditions: compound alone; run of 11/29/2021
readout name: IC50

Summary for this compound, NC1CCC(NC2CC2c2ccccc2)CC1 (stereo unspecified) : IC50 is > 10 µM

====

Test system: 855422-203-R-J1-PDC complex spheroid viability
experimental protocol: Anticancer human tumor 855422-203-R-J1-PDC cell line growth inhibition;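 also: drug exposure lasted 7 days starting on day 3 after seeding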
measurement conditions: curve of first compound; second compound 0.1 µM
pIC50: −log10 of the molar value.
Class (required): determined from pIC50; valid ranges are low-valued (below 6), mid-valued (6 to below 8), high-valued (8 or more)

**Q:** Please indicate the class for COc1ccc([C@@H](O)c2cc(-c3ncnc4cc(N5CCOCC5)ccc34)c(F)cc2Cl)nn1 + NC1CCC(NC2CC2c2ccccc2)CC1 based on its pIC50.
**A:** low-valued

**Q:** Please indicate the class for O=C(C=Cn1cnc(-c2cc(C(F)(F)F)cc(C(F)(F)F)c2)n1)NNc1cnccn1 + NC1CC1c1ccc(-c2cccc(O)c2)cc1 based on its pIC50.
**A:** mid-valued

**Q:** Please indicate the class for CC1COCCN1c1cc(-c2ccnn2C)c2ccnc(-c3ccn[nH]3)c2n1 (stereo not drawn) + NC1CCC(NC2CC2c2ccccc2)CC1 based on its pIC50.
**A:** mid-valued

**Q:** Please indicate the class for CC1(C)CCC(CN2CCN(c3ccc(C(=O)NS(=O)(=O)c4ccc(NCC5CCOCC5)c([N+](=O)[O-])c4)c(Oc4cnc5[nH]ccc5c4)c3)CC2)=C(c2ccc(Cl)cc2)C1 + NC1CCC(NC2CC2c2ccccc2)CC1 based on its pIC50.
**A:** low-valued

**Q:** Please indicate the class for CC1COCCN1c1cc(-c2ccnn2C)c2ccnc(-c3ccn[nH]3)c2n1 (stereo not drawn) + NC1CC1c1ccc(-c2cccc(O)c2)cc1 based on its pIC50.
**A:** mid-valued

**Q:** Please indicate the class for O=C(C=Cc1cccc(S(=O)(=O)Nc2ccccc2)c1)NO + NC1CCC(NC2CC2c2ccccc2)CC1 based on its pIC50.
**A:** mid-valued

**Q:** Please indicate the class for Nc1ccn(C2OC(CO)C(O)C2(F)F)c(=O)n1 (stereo not drawn) + NC1CC1c1ccc(-c2cccc(O)c2)cc1 based on its pIC50.
**A:** high-valued

**Q:** Please indicate the class for O=C(c1cc(Cc2n[nH]c(=O)c3ccccc23)ccc1F)N1CCN(C(=O)C2CC2)CC1 + NC1CC1c1ccc(-c2cccc(O)c2)cc1 based on its pIC50.
**A:** low-valued

**Q:** Please indicate the class for CCc1c2c(nc3ccc(O)cc13)-c1cc3c(c(=O)n1C2)COC(=O)[C@]3(O)CC + NC1CC1c1ccc(-c2cccc(O)c2)cc1 based on its pIC50.
**A:** high-valued

**Q:** Please indicate the class for Nc1ncn(C2CC(O)C(CO)O2)c(=O)n1 (stereo not drawn) + NC1CCC(NC2CC2c2ccccc2)CC1 based on its pIC50.
**A:** low-valued

**Q:** Please indicate the class for COc1ccc([C@@H](O)c2cc(-c3ncnc4cc(N5CCOCC5)ccc34)c(F)cc2Cl)nn1 + NC1CC1c1ccc(-c2cccc(O)c2)cc1 based on its pIC50.
**A:** low-valued

**Q:** Please indicate the class for CC(C)CC(NC(=O)C(Cc1ccccc1)NC(=O)c1cnccn1)B(O)O (stereo not drawn) + NC1CCC(NC2CC2c2ccccc2)CC1 based on its pIC50.
**A:** high-valued

**Q:** Please indicate the class for CC(C)c1c(-c2ccccc2)nc2c(C#N)c[nH]n2c1=O + NC1CCC(NC2CC2c2ccccc2)CC1 based on its pIC50.
**A:** low-valued

**Q:** Please indicate the class for Nc1ncn(C2CC(O)C(CO)O2)c(=O)n1 (stereo not drawn) + NC1CC1c1ccc(-c2cccc(O)c2)cc1 based on its pIC50.
**A:** low-valued

**Q:** Please indicate the class for CC(C)CC(NC(=O)CNC(=O)c1cc(Cl)ccc1Cl)B1OC(=O)CC(CC(=O)O)(C(=O)O)O1 (stereo not drawn) + NC1CC1c1ccc(-c2cccc(O)c2)cc1 based on its pIC50.
**A:** high-valued

**Q:** Please indicate the class for CC1COCCN1c1cc(C2(S(C)(=N)=O)CC2)nc(-c2ccnc3[nH]ccc23)n1 (stereo not drawn) + NC1CC1c1ccc(-c2cccc(O)c2)cc1 based on its pIC50.
**A:** low-valued

**Q:** Please indicate the class for CC(C)c1c(-c2ccccc2)nc2c(C#N)c[nH]n2c1=O + NC1CC1c1ccc(-c2cccc(O)c2)cc1 based on its pIC50.
**A:** low-valued

**Q:** Please indicate the class for CCc1c2c(nc3ccc(O)cc13)-c1cc3c(c(=O)n1C2)COC(=O)[C@]3(O)CC + NC1CCC(NC2CC2c2ccccc2)CC1 based on its pIC50.
**A:** high-valued

**Q:** Please indicate the class for CC1(C)CCC(CN2CCN(c3ccc(C(=O)NS(=O)(=O)c4ccc(NCC5CCOCC5)c([N+](=O)[O-])c4)c(Oc4cnc5[nH]ccc5c4)c3)CC2)=C(c2ccc(Cl)cc2)C1 + NC1CC1c1ccc(-c2cccc(O)c2)cc1 based on its pIC50.
**A:** low-valued

**Q:** Please indicate the class for CC(C)CC(NC(=O)CNC(=O)c1cc(Cl)ccc1Cl)B1OC(=O)CC(CC(=O)O)(C(=O)O)O1 (stereo not drawn) + NC1CCC(NC2CC2c2ccccc2)CC1 based on its pIC50.
**A:** high-valued

**Q:** Please indicate the class for COc1cc(C2c3cc4c(cc3C(OC3OC5COC(C)OC5C(O)C3O)C3COC(=O)C23)OCO4)cc(OC)c1O (stereo not drawn) + NC1CC1c1ccc(-c2cccc(O)c2)cc1 based on its pIC50.
**A:** mid-valued
